Taken from paper PMC6440567.

procedure.summary: Individual predicted steady‐state exposures
Type: in vivo, human
test.context: human, plasma, C max,ss geometric mean (CV), Race: White/other
outcome.measure: Cmax

NC(=O)[C@@H]1CC[C@@H]2CN1C(=O)N2OS(=O)(=O)O	12000 ng/mL
CC(C)(O/N=C(\C(=O)N[C@@H]1C(=O)N2C(C(=O)[O-])=C(C[n+]3ccccc3)CS[C@H]12)c1csc(N)n1)C(=O)O	68600 ng/mL
